Cited source: ChEMBL document CHEMBL1201862

- System: SK-MEL-28
- procedure_text: NCI tumour cell line growth inhibition, 48 h
Activity calls are given as the source filed them. Rule as the data show it: active = GI50 up to about 1.1 µM and inactive = higher. Non-standard residues stand in square brackets, D forms with d. Residues, ends and D or L forms follow the SMILES beside them. ξ: configuration not given here. Pen = CC(C)(S)[C@H](N)C(=O)O; ξL = CC(C)CC(N)C(=O)O
Permitted responses: YES = active, NO = inactive

Answered cases to consult:
COc1cccc(N2C(=O)CSC2c2cccc(Oc3ccccc3)c2)c1 (centres undefined)
NO
N=C(N)NS(=O)(=O)c1ccc(Nc2c3ccccc3nc3ccc(C(=O)Nc4ccc(S(N)(=O)=O)cc4)cc23)cc1
NO
CC(C)(CN1CCCCC1)C(=O)/C=C/c1ccc(Cl)cc1
NO
COc1ccc(S(=O)(=O)N(C)CC(=O)O)cc1
NO
Cc1cc(C(=C2C=CC(=N)C=C2)c2ccc(N)cc2)ccc1N
NO

What is the recorded call for this compound in the test? COc1cc(C2C(C(=O)O)=C(C)Oc3cc4c(cc32)OCO4)cc(OC)c1OC (centres undefined)
NO

# lookup: test call for N=C(N)NC1C(O)C(O)C(O)C(NC(=N)N)C1O (centres undefined)
NO

Could you please tell me the result logged for CSCC[C@H](NC(=O)C(CC(C)C)NC(=O)[C@H](Cc1c[nH]cn1)NC(=O)CNC(=O)[C@@H](NC(=O)[C@@H](C)NC(=O)[C@H](Cc1c[nH]c2ccccc12)NC(=O)[C@H](CCC(N)=O)NC(=O)[C@@H](N)CC(N)=O)C(C)(C)SC)C(N)=O (some centres undefined) (H-NQW[dA][Pen](Me)GH[ξL]M-NH2) in this assay?
NO

Status in this test for Cc1ccccc1N1C(N)=C(C#N)C(C#N)(C#N)C1c1ccccc1 (centres undefined) ?
NO

Outcome logged for CCC(C)C(=O)OC1CC2(C)C(c3ccoc3)OC(=O)CC23OC2(C)OC34C(OC(=O)C(C)C)C3(O)C(OC(=O)C5(C)OC5C)C5(C)CC3(O)C(C)(C5CC(=O)OC)C14O2 (centres undefined) in this assay:
NO
